- target_system: HIV-1 Env of ZM249.1 (HIV-1)
- protocol_text: cell-based or functional assay
Listed here are binders together with their documented neutralization IC50.

Take a look at these entries with their results.
CAP256-VRC26.10 (antibody, V domains shown) VH: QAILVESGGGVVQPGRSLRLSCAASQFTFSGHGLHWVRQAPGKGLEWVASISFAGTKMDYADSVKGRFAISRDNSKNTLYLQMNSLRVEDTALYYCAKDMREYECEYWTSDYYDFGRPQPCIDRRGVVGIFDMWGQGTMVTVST VL: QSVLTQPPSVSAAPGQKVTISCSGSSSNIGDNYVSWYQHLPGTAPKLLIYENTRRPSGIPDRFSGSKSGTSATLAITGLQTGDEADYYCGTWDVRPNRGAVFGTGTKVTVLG: > 50 µg/mL
CAP256-VRC26.05 (antibody, V domains shown) VH: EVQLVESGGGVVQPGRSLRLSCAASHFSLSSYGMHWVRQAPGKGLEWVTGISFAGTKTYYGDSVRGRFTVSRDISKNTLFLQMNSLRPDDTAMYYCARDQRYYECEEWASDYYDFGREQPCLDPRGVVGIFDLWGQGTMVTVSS VL: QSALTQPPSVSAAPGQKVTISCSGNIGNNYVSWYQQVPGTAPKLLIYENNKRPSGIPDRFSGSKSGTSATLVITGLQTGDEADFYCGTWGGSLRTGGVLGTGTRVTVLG: > 50 µg/mL

Now turn to the next binder.
Form field neutralization IC50, entry CAP256-VRC26.07 (antibody, V domains shown) VH: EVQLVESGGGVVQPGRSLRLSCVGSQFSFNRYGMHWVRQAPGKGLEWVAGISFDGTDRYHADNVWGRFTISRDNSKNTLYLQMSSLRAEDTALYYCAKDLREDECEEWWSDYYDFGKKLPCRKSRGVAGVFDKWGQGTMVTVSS VL: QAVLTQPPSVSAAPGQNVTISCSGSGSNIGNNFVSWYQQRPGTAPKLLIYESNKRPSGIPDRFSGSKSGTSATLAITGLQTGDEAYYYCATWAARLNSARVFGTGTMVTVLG : 44.1 µg/mL
